This listing pairs variants with measured protein stability index.
B1: EPB41L3 (parent)
chain: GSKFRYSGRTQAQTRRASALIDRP

- Variants of: B1
- ASSAY_INFO: protein stability index of a GFP-peptide fusion (GPS, HEK-293T) (PSI 1-6); higher = more stable;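 note: lentivirally expressed fusions sorted by FACS into six bins by GFP to DsRed ratio, PSI derived from sequencing read proportions per bin multiplied by bin number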
- CONDITION_CONTEXT: c terminus: a fixed tail appended
Could you respond with only the numeric value?

Examples with answers:
INSERT INTO assay_data (mutant_code, assay_result) VALUES
  ('T14Q', 2.81),
  ('P24M', 3),
  ('F4E', 3.82);

Tell me measured protein stability index for `K3V` please.
2.33

Given `R15V` , respond with its protein stability index.
2.99
